Measured values drawn from PubChem BioAssay (NCI) for this set.

# Test system: BT-549 breast
# MEASUREMENT NOTES: NCI tumour cell line growth inhibition, 48 h; in the data active = GI50 below about 0.43 µM; inactive = the rest
Outcome field: choose from active, inactive

Which outcome was assigned to COc1cc(C2CC(c3ccc(C)cc3)=NN2C(C)=O)ccc1Oc1ccnc2cc(Cl)ccc12 (configuration not stated) in this test?
inactive

# lookup: test call for CC([C@H]1CCC2C3CCC4C(=O)C(NC=O)=CC[C@]4(C)C3CC[C@@]21C)N(C)C (some centres not stated)
inactive

Any idea what this test logged for Nc1nc(Cl)cc2c1ncn2C1OC(CO)C(O)C1O (configuration not stated) ?
inactive

Hey, what did the test say about COc1cc2c(cc1OC)[C@@H]1[C@H](C2=O)c2ccc([N+](=O)[O-])cc2C(=O)N1CCCBr ?
inactive

What did the test return for COc1ccc(-c2ccc(/C=N/n3cnn(CN4CCN(C)CC4)c3=S)o2)c([N+](=O)[O-])c1 ?
inactive

Which outcome did this test record for the compound COc1cc(Oc2cnc3cc(N)cc(N)c3n2)cc(OC)c1OC ?
inactive

What is the recorded call for this compound in the test? O=C(NCCc1ccccc1)C(c1csc2ccccc12)N(C(=O)CCl)c1ccc(-c2cnco2)cc1 (configuration not stated)
active

Record lookup: outcome of this test for N=C(N)c1ccc(-c2ccc(-c3ccco3)o2)cc1 ?
inactive

Answer briefly: the call reported for COc1ccc(-n2cc(-c3ccc(Cl)cc3)[nH]c2=S)cc1Cl in this assay.
inactive

Kindly provide the recorded test outcome for the following compound: O=c1cc(N2CCOCC2)oc2c(-c3ccccc3)cccc12
inactive

Call for entry COC(=O)c1ccc2c(c1)[n+](=O)c(C(C)=O)c(C(F)(F)F)n2[O-] :
inactive

// outcome(item) with item = COC(=O)C1=C(O)C(C(=O)OC)[C@@]2(O)[C@@H](C(=O)OC)C(c3ccc(OC(=O)C(Cc4ccccc4)NC(C)=O)cc3)C[C@@H]1[C@@H]2C(=O)OC (some centres not stated)
inactive

###

Consider the following compounds; for each one, report its TGI.
# Tested on: MALME-3M melanoma
# MEASUREMENT NOTES: NCI tumour cell line growth inhibition, 48 h

Using MALME-3M melanoma as the test system, report measured TGI of Cn1c(=O)c2[nH]c(Nc3ccccc3)nc2n(C)c1=O .
> 10 µM

Please report TGI with MALME-3M melanoma for item COC(=O)C1=C(SC)SC2(C(=O)OC)C3C=C(C)C4C(N13)C42C(=O)OC (stereo not given) .
> 100 µM

Quote TGI with test system MALME-3M melanoma for O=C(CC1Sc2ccccc2NC1=O)Nc1ccc([N+](=O)[O-])cc1[N+](=O)[O-] (stereo not given)
40.6 µM

Lab note: MALME-3M melanoma assay, enter TGI for COC(=O)c1nc(N)[nH]c(=O)c1-c1ccc(Cl)cc1 here
> 100 µM

Provide the reported TGI (system: MALME-3M melanoma) for COC1=CC(=O)c2c(O)c3c(c(O)c2C1=O)CC(C)(O)OC3 (stereo not given)
2.1 µM

With MALME-3M melanoma as the test system, provide measured TGI for this compound: C=C1CN(C(=O)c2cc3cc(OC)c(OC)c(OC)c3[nH]2)c2cc([N+](=O)[O-])ccc21
> 100 µM

Output reported TGI of the compound O=C(/C=C/c1ccccc1O)CC(=O)/C=C/c1ccccc1O on MALME-3M melanoma.
17.5 µM

Fetch value of TGI on MALME-3M melanoma for COc1ccc(/C=N\N2C(=O)Cc3ccccc32)cc1 .
> 100 µM

Specify TGI for O=C1NC(N2CCOCC2)=N/C1=C\c1ccccc1 , system MALME-3M melanoma.
> 100 µM

Specify TGI for N=C(N)c1ccc(-c2ccc(-c3ccco3)o2)cc1 , system MALME-3M melanoma.
4.12 µM

Report TGI on MALME-3M melanoma for this entry: COc1ccc(C2CC(c3cccc(Nc4ccnc5cc(Cl)ccc45)c3)=NN2c2ccccc2)cc1 (stereo not given)
42.7 µM

Under MALME-3M melanoma, report TGI for CCCCC(=O)Nc1ccc2cc(C(=O)OC)c(=O)[nH]c2n1
> 100 µM

Give TGI for COc1cc(CNc2nc3cc(C(F)(F)F)ccc3nc2C(=O)O)cc(OC)c1OC tested on MALME-3M melanoma.
> 100 µM

For MALME-3M melanoma, give the measured TGI of the entry COc1ccc(-n2cc(-c3ccc(Cl)cc3)[nH]c2=S)cc1Cl
> 100 µM

Under MALME-3M melanoma, report TGI for NNC(=S)N/N=C(\c1nc2ccc(Cl)cc2[nH]c1=O)C(O)c1ccc(Cl)cc1Cl (stereo not given)
> 100 µM

###

# Test system: SK-MEL-5 melanoma
# MEASUREMENT NOTES: NCI tumour cell line growth inhibition, 48 h; in the data active = GI50 below about 0.43 µM; inactive = the rest
Your response should consist of one outcome taken from true (1) (active), false (0) (inactive)

Can you look up the reported call for COc1ccc(-c2ccc(/C=N/n3cnn(CN4CCN(C)CC4)c3=S)o2)c([N+](=O)[O-])c1 for me?
false (0)

Entry COc1ccc(CNCCN2C(=O)c3ccc4c5c(ccc(c35)C2=O)C(=O)N(CCNCc2ccc(OC)cc2)C4=O)cc1 : call = ?
true (1)

Kindly provide the recorded test outcome for the following molecule: O=C(NCCc1ccccc1)C(c1csc2ccccc12)N(C(=O)CCl)c1ccc(-c2cnco2)cc1 (centres undefined)
false (0)

For COc1cc2c(cc1OC)[C@@H]1[C@H](C2=O)c2ccc([N+](=O)[O-])cc2C(=O)N1CCCBr , which call appears in the assay record?
true (1)

How was CC([C@H]1CCC2C3CCC4C(=O)C(NC=O)=CC[C@]4(C)C3CC[C@@]21C)N(C)C (some centres undefined) classified in this test?
false (0)

For COC(=O)c1ccc2c(c1)[n+](=O)c(C(C)=O)c(C(F)(F)F)n2[O-] , which call appears in the assay record?
false (0)

Per the records of this test, what outcome belongs to N=C(N)c1ccc(-c2ccc(-c3ccco3)o2)cc1 ?
false (0)

State the result this test recorded for COc1ccc(OC)c(-c2cc(-c3ccc(Cl)cc3)nn2-c2ccc(S(N)(=O)=O)cc2)c1 .
false (0)

// param item: CCSc1sc(-c2ccc(C)cc2)nc1[P+](c1ccccc1)(c1ccccc1)c1ccccc1 ; yields the recorded call
true (1)

###

Assignment: determine reported TGI for the given compounds.
# System: PC-3 prostate
# MEASUREMENT NOTES: NCI tumour cell line growth inhibition, 48 h
# unit: µM | format: bare number

# return recorded TGI for entry Cc1c(Br)cccc1NC(=O)c1sc2nc3c(cc2c1N)CN(Cc1ccccc1)CC3
22.4

State, in one line, measured TGI of CCOC(=O)C(C(N)=O)c1nc2cc([N+](=O)[O-])ccc2nc1/C=C(\O)c1ccc(C)cc1 (stereo not given)
40.4

Entry COC(=O)C1=C(O)C(C(=O)OC)[C@@]2(O)[C@@H](C(=O)OC)C(c3ccc(OC(=O)C(Cc4ccccc4)NC(C)=O)cc3)C[C@@H]1[C@@H]2C(=O)OC (stereo not given in full) needs its TGI filled in; supply it.
91

Indicate the recorded TGI value for this compound: CC([C@H]1CCC2C3CCC4C(=O)C(NC=O)=CC[C@]4(C)C3CC[C@@]21C)N(C)C (stereo not given in full)
14.5

Return TGI (reported value) for this compound: COC1=CC(=O)c2c(O)c3c(c(O)c2C1=O)CC(C)(O)OC3 (stereo not given)
14.9

Supply TGI value. Item: COc1ccc(/C=C/C=C2C(=O)NC(=S)NC2=O)cc1
43.8

Respond only with TGI recorded for NS(=O)(=O)OC[C@H]1O[C@@H](n2cnc3c(N[C@H]4CCc5ccccc54)ncnc32)[C@H](O)[C@@H]1O
2.14

Find the measured TGI of C=CCCCN1C(=O)C2C3c4ccccc4C(C=O)(c4ccccc43)C2C1=O (stereo not given) and report it.
26.3

Give the value of TGI reported for the following: CC(=O)O/N=C1\C=Cc2c(no[n+]2[O-])C1=O
32.3

###

# Test system: SR leukemia
# MEASUREMENT NOTES: NCI tumour cell line growth inhibition, 48 h
Would you mind telling me the reported TGI of each entry?

For the molecule O=C1/C(=C/c2ccc(F)cc2)CN(Cc2cn(CCNc3ccnc4cc(Cl)ccc34)nn2)C/C1=C\c1ccc(F)cc1 , give its measured TGI value.
1.66 µM

Note down TGI recorded for CCOC(=O)n1c2ccccc2c2c(O)c(OC)c3c(c21)C(=O)NC3=O
87.9 µM

Tell me its TGI given O=C(NC12CC3CC(CC(C3)C1)C2)n1cnc2cncnc21 as the entry.
62.4 µM

Read off the recorded TGI for COc1ccc(NC(=O)CC(=O)n2nc(-c3ccccc3)c(N=Nc3ccc(C)cc3)c2-c2ccccc2)cc1
98.3 µM

Check the records and state TGI for COc1ccc(NC(=O)c2cc(NC(=O)/C=C/c3ccccc3)c(OC)c(OC)c2)cc1
> 100 µM

Query TGI for Cc1cc2nc(N)n[n+]([O-])c2cc1C
> 100 µM
